run description: Inhibition Assay: Two-electrode voltage-clamp recordings were made from Xenopus laevis oocytes expressing recombinant rat GluN1/GluN2A, GluN1/GluN2B, GluN1/GluN2C, GluN1/GluN2D, GluA1, or GluK2 receptors following injection of 5-10 ng of cRNA synthesized according to manufacturers' protocols (Ambin, mMessage, mMachine). cDNAs used were rat GluN1-1a (GenBank accession numbers U11418 and U08261; hereafter GluN1), GluN2A (D13211), GluN2B (U11419), GluN2C (M91563), GluN2D (L31611), GluA1 (X17184), GluK2 (Z11548). The current under voltage-clamp was recorded during perfusion with recording solution containing (in mM) 90 NaCl, 1.0 KCl, 0.5 BaCl2, 0.005 EDTA, and 10 HEPES at pH 7.4 (23° C.). Glass micropipettes had resistances of 0.3-1.0 MS2 and were filled with 3.0 M KCl. The membrane potential was clamped at −40 mV during the experiment. Recordings were digitized at 10 Hz and analyzed off line. 20 mM stock solutions of test compounds in 100% DMSO were made and diluted to obtain the final concentration; final DMSO content was 0.05-0.5% (vol/vol). Oocytes expressing GluK2 homomeric receptors were first treated with 10 μM concanavalin A (10 minutes). NMDA receptor responses were obtained by challenging oocytes with 100 μM glutamate plus 30 μM glycine; GluA1 and GluK2 receptors responses were recorded during application of 100 μM glutamate. We recorded the response to 5-7 concentrations of test drug co-applied with glutamate and glycine in 5 or more oocytes obtained from two different frogs.
Format: cell-based
Each item that follows carries a reported IC50.
Field format: number, assumed µM, no unit text.

compound: CCc1ccc(C2C(C(=O)c3ccncc3)=C(O)C(=O)N2CCc2c[nH]c3cc(C)ccc23)cc1 (configuration not stated)
IC50 [µM]: 9

-- ask Note IC50 for the compound shown: CCc1ccc(C2C(C(=O)c3cccnc3)=C(O)C(=O)N2CCc2c[nH]c3cc(C)ccc23)cc1 (configuration not stated)
-- reply 7
